- study target: T1, Human BCMA (human, UniProt Q02223 1-54, limits assumed)
- T1 construct: Soluble analyte in SPR; construct not described; also called huBCMA; B-cell maturation antigen
- T1 sequence (looked up): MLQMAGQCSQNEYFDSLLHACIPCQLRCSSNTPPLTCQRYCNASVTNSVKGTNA
- assay info: SPR, IgG immobilised, 25 C
property: Kd

Consider the following illustrative entries.
| binder | property | experimental value |
| --- | --- | --- |
| L1.LGF/L3.KW/H3.AL (antibody, V domains shown, IgG) VH: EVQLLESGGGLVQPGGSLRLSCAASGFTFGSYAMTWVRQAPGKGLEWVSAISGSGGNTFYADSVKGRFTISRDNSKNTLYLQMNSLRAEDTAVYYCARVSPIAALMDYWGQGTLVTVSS VL: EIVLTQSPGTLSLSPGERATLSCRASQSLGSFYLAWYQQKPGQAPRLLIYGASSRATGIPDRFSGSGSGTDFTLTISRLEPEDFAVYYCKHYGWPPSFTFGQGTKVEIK | Kd | 2.87 nM |
| L1.LGF/L3.NY/H3.AL (antibody, V domains shown, IgG) VH: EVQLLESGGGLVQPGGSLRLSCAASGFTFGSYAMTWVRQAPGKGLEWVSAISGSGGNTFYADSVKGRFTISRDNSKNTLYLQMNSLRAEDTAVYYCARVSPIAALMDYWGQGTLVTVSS VL: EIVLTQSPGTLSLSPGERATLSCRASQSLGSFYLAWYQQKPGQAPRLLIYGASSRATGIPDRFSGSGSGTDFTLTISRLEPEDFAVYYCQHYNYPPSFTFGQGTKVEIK | Kd | 1.27 nM |
| L1.GDF/L3.NY/H3.AQ (antibody, V domains shown, IgG) VH: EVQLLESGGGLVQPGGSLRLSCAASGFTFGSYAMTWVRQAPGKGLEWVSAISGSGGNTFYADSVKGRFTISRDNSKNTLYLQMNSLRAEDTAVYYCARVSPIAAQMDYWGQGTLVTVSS VL: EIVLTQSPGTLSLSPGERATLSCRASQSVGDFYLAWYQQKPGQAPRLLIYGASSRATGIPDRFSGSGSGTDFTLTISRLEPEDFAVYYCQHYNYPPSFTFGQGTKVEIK | Kd | 0.73 nM |
| L1.LGF/L3.KW/H3.AQ (antibody, V domains shown, IgG) VH: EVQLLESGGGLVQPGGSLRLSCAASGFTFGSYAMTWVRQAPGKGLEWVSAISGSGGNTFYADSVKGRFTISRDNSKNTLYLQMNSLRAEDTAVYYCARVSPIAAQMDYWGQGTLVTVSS VL: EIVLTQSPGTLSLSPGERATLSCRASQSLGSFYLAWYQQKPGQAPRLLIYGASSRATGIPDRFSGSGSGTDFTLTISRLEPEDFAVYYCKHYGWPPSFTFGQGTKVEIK | Kd | 1.82 nM |

Shifting focus to the binder that follows.
Value of Kd reported for the binder L1.GDF/L3.KW/H3.AP (antibody, V domains shown, IgG) VH: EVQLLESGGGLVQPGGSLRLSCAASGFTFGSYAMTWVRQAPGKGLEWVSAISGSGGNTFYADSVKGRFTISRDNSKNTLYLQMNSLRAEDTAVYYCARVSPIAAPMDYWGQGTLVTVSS VL: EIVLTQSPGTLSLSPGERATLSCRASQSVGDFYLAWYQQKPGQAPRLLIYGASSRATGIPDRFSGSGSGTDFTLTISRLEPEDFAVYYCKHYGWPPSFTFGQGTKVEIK is 3.93 nM
